Hey, just so you know, these numbers are from PubChem BioAssay (NCI).

Assay: NCI Yeast Anticancer Drug Screen. Data for the mec2-1 strain (AID 157)
Conditions: S. cerevisiae mec2-1 strain, at 50.0 µM (retest, dose inferred, filed as 5.0)
Procedure: Growth inhibition of yeast strains with defined genetic alterations is measured as a screen for potential anti-cancer activity. Selected strains with alterations in DNA damage repair or cell cycle control were exposed to compounds and growth inhibition was measured relative to vehicle treated controls. The strain used in this assay is mec2-1
About 79,000 compounds went through this panel and 15% of them were active in at least one assay; those are over-represented in the sample as a whole. The source made the active and inactive calls. Cut-off read from the data, not from the text of the source: active = growth inhibition above about 70%; inactive = the rest.
Classes used: 1 (active), 0 (inactive)

MOLECULE: OC(C/C(CNNc1ccccc1)=N/Nc1ccccc1)(C(F)(F)F)C(F)(F)F
CLASS_LABEL: 1
//
MOLECULE: O=C1C(c2ccc([N+](=O)[O-])cc2)=C(Cl)C(=O)c2c(O)cccc21
CLASS_LABEL: 0
//
MOLECULE: COC(=O)C(=O)C(C(=O)Nc1cccc(C)c1C)C1Sc2ccccc2NC1=O (stereo unspecified)
CLASS_LABEL: 1
//
MOLECULE: COC(CC[P+](c1ccccc1)(c1ccccc1)c1ccccc1)(C(=O)c1ccccc1)c1ccccc1 (stereo unspecified)
CLASS_LABEL: 1
//
MOLECULE: CC(C)=C1C=C2CCC3C(C)(C(=O)O)CCCC3(C)C2CC1 (stereo unspecified) (tested in a mixture with another compound)
CLASS_LABEL: 0
//
MOLECULE: CCCCCCOC(=O)CCC(=O)OCCCCCC
CLASS_LABEL: 0
//
MOLECULE: CC[N-]c1nncs1.CC[N-]c1nncs1.CC[N-]c1nncs1.CC[N-]c1nncs1.[Cl][Rh][Cl]
CLASS_LABEL: 1
//
MOLECULE: OCC(O)C(O)C(O)C(/C=N/Nc1ccccc1)=N\Nc1ccccc1 (stereo unspecified)
CLASS_LABEL: 0
//
MOLECULE: O=c1cccccc1[O-].O=c1cccccc1[O-].O=c1cccccc1[O-].[Ce+3]
CLASS_LABEL: 0
//
MOLECULE: CC1=NN(c2ccccc2)C(=O)C12[C@H](c1ccccc1)C2(C#N)C#N (stereo partly specified)
CLASS_LABEL: 1
//
MOLECULE: O=CC(I)=C(c1ccccc1)c1ccccc1
CLASS_LABEL: 0
//
MOLECULE: CC1/C=C/C=C/CC/C=C/C=C/C=C/C=C/C(OC2OC(C)C(O)C(N)C2O)CC2OC(CC(O)C(O)CCC(O)CC(O)CC(O)CC(=O)OC(C)C(C)C1O)CC(O)C2C(=O)O (stereo unspecified)
CLASS_LABEL: 1
//
MOLECULE: CC(=O)NC1=C(Sc2ccc([N+](=O)[O-])cc2)C(=O)c2ccccc2C1=O
CLASS_LABEL: 1
//
MOLECULE: O=C1c2ccccc2-c2cc(S)c([N+](=O)[O-])cc21
CLASS_LABEL: 0
//
MOLECULE: O=[N+]([O-])c1c(O)cccc1O
CLASS_LABEL: 1
//
MOLECULE: Cc1ccc(C2=C(C#N)C(c3ccccc3)C(C#N)=C(N)O2)cc1 (stereo unspecified)
CLASS_LABEL: 1
//
MOLECULE: N#Cc1c(N)nc2c(N=Nc3ccccc3)c(N)nn2c1Nc1ccccc1
CLASS_LABEL: 0
//
MOLECULE: ON(Cc1ccccc1)C(=S)c1ccccc1
CLASS_LABEL: 1
//
MOLECULE: O=C(O)/C(=C/c1ccc(Cl)cc1)c1ccccc1
CLASS_LABEL: 0
//
MOLECULE: Cc1cc(Cc2ccccc2)ccc1O
CLASS_LABEL: 0
//
MOLECULE: O=Cc1ccc([N+](=O)[O-])o1
CLASS_LABEL: 1

----------
Items are presented alongside their recorded growth inhibition.
experiment: NCI Yeast Anticancer Drug Screen. Data for the sgs1 mgt1 strain (AID 161);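 note: 0% = growth of cultures given vehicle only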; settings: S. cerevisiae sgs1 mgt1 strain, at 5.0 µM (retest, dose inferred, filed as 0.5), hits give high values
About 79,000 compounds went through this panel and 15% of them were active in at least one assay; those are over-represented in the sample as a whole.

STRUCTURE_NOTATION: O=[N+]([O-])/C=C/c1c[nH]c2c1ccc1ccccc12
growth inhibition (%): 59
--
STRUCTURE_NOTATION: CCN(CC)CCC(=O)c1ccc(Oc2ccc(C)cc2)cc1
growth inhibition (%): 24
--
STRUCTURE_NOTATION: CC(C)(C)OC(=O)N[C@H]1CC2(C=C(Cl)C(=O)C(Cl)=C2)OC1=O
growth inhibition (%): 23
--
STRUCTURE_NOTATION: COc1ccnc2c1C(=O)c1nc3ccccc3c3ccnc-2c13
growth inhibition (%): 9

----------
assay: NCI Yeast Anticancer Drug Screen. Data for the bub3 strain (AID 167); conditions: S. cerevisiae bub3 mutant strain, at 50.0 µM (retest, dose inferred, filed as 5.0)
Compounds without any hit were thinned out: in the full panel of roughly 79,000, 15% have a hit. Activity calls are given as the source filed them. No stated cut-off is given here; in the data, active means growth inhibition above about 70%; inactive means the rest.
Classes used: yes for active, no for inactive

MOLECULE: Cc1cccc2c1Oc1cc(Cl)ccc1C2NC(=O)CCN1CCN(CCO)CC1 (configuration not stated)
CLASS_LABEL: no
//
MOLECULE: CN(C)CCCNc1cc(/C=C/c2ccc([N+](=O)[O-])cc2)nc2ccccc12
CLASS_LABEL: no
//
MOLECULE: CCCCCCCCCCCc1ccn[nH]1
CLASS_LABEL: yes
//
MOLECULE: Oc1ccc(CCCCCc2ccc(O)cc2)cc1
CLASS_LABEL: yes
//
MOLECULE: O=C1C=CC(=Nc2cccc3c2-c2ccccc2C3)O1
CLASS_LABEL: yes
//
MOLECULE: CCN(CC)CCNc1c(OC)cc(C)c2sc3ccccc3c(=O)c12
CLASS_LABEL: no
//
MOLECULE: COC(=O)c1n[nH]c(C(C)C)c1N=NN(C)C
CLASS_LABEL: yes
//
MOLECULE: Nc1cc2[nH]c(=O)c3cc(Cl)ccc3c2cc1Cl
CLASS_LABEL: no
//
MOLECULE: CNc1ccc([N+](=O)[O-])cc1
CLASS_LABEL: no
//
MOLECULE: CCCCCCCCCCCCCCCC[N+](C)(C)CCCCCC(=O)OC
CLASS_LABEL: yes
//
MOLECULE: O=C([O-])C[n+]1c(/C=C/c2ccccc2)ccc2ccccc21
CLASS_LABEL: yes
//
MOLECULE: CCOC(=O)C1=C(c2ccccc2)SC(c2ccccc2)N(C(C)C)C1=O (configuration not stated)
CLASS_LABEL: no

----------
Assay: NCI Yeast Anticancer Drug Screen. Data for the mec2-1 strain (AID 157)
Details: S. cerevisiae mec2-1 strain, at 5.0 µM (retest, dose inferred, filed as 0.5), hits give high values
Description: Growth inhibition of yeast strains with defined genetic alterations is measured as a screen for potential anti-cancer activity. Selected strains with alterations in DNA damage repair or cell cycle control were exposed to compounds and growth inhibition was measured relative to vehicle treated controls. The strain used in this assay is mec2-1
About 79,000 compounds went through this panel and 15% of them were active in at least one assay; those are over-represented in the sample as a whole.

COMPOUND: CCCCCCC1CCC(CCCCCCCC(=O)N2CCN(C)CC2)C(C/C=C/CCCCCCCC(=O)N2CCN(C)CC2)C1CCCCC (stereo not drawn)
growth inhibition [%]: -1
--
COMPOUND: CCCCCCCCCCCC[n+]1ccc(C#N)cc1
growth inhibition [%]: 30
--
COMPOUND: O=C(NC[N+]12CCO[B-]1(c1ccc(Br)cc1)OCC2)c1ccccc1O (stereo not drawn)
growth inhibition [%]: 11
--
COMPOUND: Clc1ccc2ns[s+]c2c1
growth inhibition [%]: 13
--
COMPOUND: COc1ccnc2c1C(=O)c1nc3ccccc3c3ccnc-2c13
growth inhibition [%]: -9
--
COMPOUND: COC(CC[P+](c1ccccc1)(c1ccccc1)c1ccccc1)(C(=O)c1ccccc1)c1ccccc1 (stereo not drawn)
growth inhibition [%]: 97
--
COMPOUND: CCSc1nc2ccc(N3C(=O)C=CC3=O)cc2s1
growth inhibition [%]: 93
--
COMPOUND: CSc1ncnc2nn(C3OC(COC(=O)c4ccccc4)C(OC(=O)c4ccccc4)C3OC(=O)c3ccccc3)nc12 (stereo not drawn)
growth inhibition [%]: -1
--
COMPOUND: O=c1c2ccccc2sc2c1c(N(CCO)CCO)cc1ccccc12
growth inhibition [%]: 6
--
COMPOUND: O=C1C(c2ccc([N+](=O)[O-])cc2)=C(Cl)C(=O)c2c(O)cccc21
growth inhibition [%]: -3
--
COMPOUND: COc1ccc(OC)c2c1C=C[C@H](C1(C)SCCS1)C2C(C)=O (stereo partly drawn)
growth inhibition [%]: -4
--
COMPOUND: NC(=O)N/N=C/C(O)C(O)C(O)C(O)CO (stereo not drawn)
growth inhibition [%]: -4
--
COMPOUND: COc1cc(Cc2n[nH]c(=S)n2-c2ccccc2)c(S(N)(=O)=O)cc1OC
growth inhibition [%]: 1
--
COMPOUND: COc1ccc2cc(C3CCCC3(C)CC(=O)O)ccc2c1 (stereo not drawn)
growth inhibition [%]: 11
--
COMPOUND: CN(C)c1ccc(C2(Cl)c3ccccc3N(Cc3ccccc3)c3ccccc32)cc1
growth inhibition [%]: 99
--
COMPOUND: O=C1C=C(O)c2cc(Br)ccc2C1=O.[Ag]
growth inhibition [%]: 100
--
COMPOUND: OCC(O)C(O)C(O)C(/C=N/Nc1ccccc1)=N\Nc1ccccc1 (stereo not drawn)
growth inhibition [%]: -1
--
COMPOUND: CS(=O)c1cc(=O)c2ccccc2s1 (stereo not drawn)
growth inhibition [%]: -4
--
COMPOUND: O=[N+]([O-])C1=Cc2ccccc2S(=O)(=O)CC1
growth inhibition [%]: 14
--
COMPOUND: CCCc1cc(-c2ccc(O)c(CCC)c2)ccc1O
growth inhibition [%]: 98
--
COMPOUND: O=C(NCCCl)Nc1c2ccccc2nc2ccccc12
growth inhibition [%]: 8
--
COMPOUND: Cc1nc(C(N)=S)sc1/C(CC(=O)C(=O)Nc1cccc2ccc(O)cc12)=N\NC(=O)c1ccncc1
growth inhibition [%]: 16
--
COMPOUND: Cc1cn(C2CC(Br)C(COC(c3ccccc3)(c3ccccc3)c3ccccc3)O2)c(=O)[nH]c1=O (stereo not drawn)
growth inhibition [%]: 6
